All figures here come from ChEMBL document CHEMBL1275378.

assay: Selectivity ratio of IC50 for rat recombinant nNOS to IC50 for mouse recombinant iNOS
Output schema: class label derived from Ratio. Mapping: Low = under 10, Medium = from 10 up to 60, High = 60 and over

Incoming: Band for NCCN1C[C@H](Cc2cccc(N)n2)[C@@H](NCCCc2ccccc2)C1 (racemic) ?
Outgoing: High

Incoming: Now try Cc1cc(N)nc(C[C@H]2CNC[C@@H]2NCCN)c1 (racemic; form 1) .
Outgoing: Low

Incoming: Try Cc1cc(N)nc(C[C@H]2CNC[C@@H]2NC[C@H](C)NCc2ccc(Cl)cc2)c1 (racemic) next.
Outgoing: Medium

Incoming: Query Cc1cc(N)nc(C[C@H]2CNC[C@@H]2NCCNCc2cccc(C(F)(F)F)c2)c1 (racemic) next
Outgoing: High

Incoming: Likewise for CN(C)CCN[C@H]1CNC[C@@H]1Cc1cccc(N)n1 (racemic) ?
Outgoing: Medium

Incoming: Also Cc1cc(N)nc(C[C@H]2CNC[C@@H]2NCCNCc2ccc(Cl)c(Cl)c2)c1 (racemic) ?
Outgoing: Medium

Incoming: Further, for NCCN1C[C@H](Cc2cccc(N)n2)[C@H](NCCCc2ccccc2)C1 (racemic) ?
Outgoing: Medium

Incoming: Param item: Nc1cccc(C[C@H]2CNC[C@@H]2N[C@@H]2CCN(Cc3ccccc3)C2)n1 (racemic)
Outgoing: Medium

Incoming: Please give the result for Nc1cccc(C[C@H]2CNC[C@@H]2NC[C@@H](N)Cc2ccccc2)n1 (racemic) too.
Outgoing: Medium

Incoming: Cool, now Cc1cccc(CNCCN[C@H]2CNC[C@@H]2Cc2cc(C)cc(N)n2)c1 (racemic)
Outgoing: High

Incoming: Also Cc1cc(N)nc(C[C@H]2CNC[C@@H]2NCCN)c1 (racemic; form 2) , if possible.
Outgoing: Medium

Incoming: Input Nc1cccc(C[C@H]2CNC[C@@H]2O)n1 (racemic)
Outgoing: Low

###

Molecular target: Nitric oxide synthase 3 (Bos taurus)
Sequence (P29473 whole entry): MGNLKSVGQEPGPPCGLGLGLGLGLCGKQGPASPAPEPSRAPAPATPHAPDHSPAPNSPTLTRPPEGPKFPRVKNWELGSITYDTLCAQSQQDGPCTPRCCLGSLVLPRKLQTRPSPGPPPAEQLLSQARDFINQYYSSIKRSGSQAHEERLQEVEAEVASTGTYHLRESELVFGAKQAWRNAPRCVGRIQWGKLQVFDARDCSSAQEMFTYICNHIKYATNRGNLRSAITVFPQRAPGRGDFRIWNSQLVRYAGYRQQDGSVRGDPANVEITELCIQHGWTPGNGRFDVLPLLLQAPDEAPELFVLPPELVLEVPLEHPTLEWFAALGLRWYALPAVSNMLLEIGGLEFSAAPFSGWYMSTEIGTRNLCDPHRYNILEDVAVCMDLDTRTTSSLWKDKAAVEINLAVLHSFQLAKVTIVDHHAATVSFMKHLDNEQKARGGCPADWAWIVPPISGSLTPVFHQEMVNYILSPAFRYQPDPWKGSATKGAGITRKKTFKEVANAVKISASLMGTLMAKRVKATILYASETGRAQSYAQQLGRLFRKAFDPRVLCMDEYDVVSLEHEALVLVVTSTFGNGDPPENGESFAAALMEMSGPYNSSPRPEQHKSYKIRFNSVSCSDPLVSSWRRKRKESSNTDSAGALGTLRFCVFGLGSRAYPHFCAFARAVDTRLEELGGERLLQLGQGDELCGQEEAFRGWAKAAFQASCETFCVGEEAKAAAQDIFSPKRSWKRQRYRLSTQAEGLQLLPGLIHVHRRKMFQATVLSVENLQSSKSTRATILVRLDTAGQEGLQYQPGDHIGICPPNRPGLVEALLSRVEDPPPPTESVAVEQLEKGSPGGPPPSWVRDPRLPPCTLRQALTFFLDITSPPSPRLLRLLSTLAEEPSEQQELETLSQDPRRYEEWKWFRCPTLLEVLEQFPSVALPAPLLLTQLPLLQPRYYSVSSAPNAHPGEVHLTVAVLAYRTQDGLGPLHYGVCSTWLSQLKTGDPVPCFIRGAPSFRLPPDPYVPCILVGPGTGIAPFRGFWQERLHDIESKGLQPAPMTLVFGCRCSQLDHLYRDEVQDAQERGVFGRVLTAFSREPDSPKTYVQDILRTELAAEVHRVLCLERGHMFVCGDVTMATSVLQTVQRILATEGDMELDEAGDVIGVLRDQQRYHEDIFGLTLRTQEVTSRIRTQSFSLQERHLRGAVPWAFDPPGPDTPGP
Assay: Inhibition of bovine recombinant eNOS
Please respond with reported pKi for every item in the list.
Give only the number. pKi is defined as minus log10 of concentration in molar units.

Incoming: Form entry - test system: Nitric oxide synthase 3 (Bos taurus); read-out: pKi; compound: Cc1cc(N)nc(C[C@H]2CNC[C@@H]2NCCNCc2ccc(F)cc2)c1 (racemic)
Outgoing: 4.10

Incoming: Then this compound: Cc1cc(N)nc(C[C@H]2CNC[C@@H]2NCCCc2ccccc2)c1 (racemic)
Outgoing: 4.07

Incoming: Nc1cccc(C[C@H]2CNC[C@@H]2N[C@H]2CCN(Cc3ccccc3)C2)n1 (racemic) ?
Outgoing: 3.96

Incoming: Same for Nc1cccc(C[C@H]2CNC[C@@H]2N[C@@H]2CCNC2)n1 (racemic)
Outgoing: 3.34

Incoming: Consider next the compound NCCN1C[C@H](Cc2cccc(N)n2)[C@H](NCCCO)C1 (racemic) in the same way.
Outgoing: 3.07

Incoming: Try NCCN1C[C@H](Cc2cccc(N)n2)[C@@H](NCCCc2ccccc2)C1 (racemic) next.
Outgoing: 3.76

Incoming: Similarly, Cc1cc(N)nc(C[C@H]2CNC[C@@H]2NCCNCc2cccc(C(F)(F)F)c2)c1 (racemic) ?
Outgoing: 3.96

Incoming: And for Nc1cccc(C[C@H]2CNC[C@@H]2O)n1 (racemic) ?
Outgoing: 3.47

Incoming: Same question, NCCN1C[C@H](Cc2cccc(N)n2)[C@H](NCCCc2ccccc2)C1 (racemic) this time
Outgoing: 3.91

Incoming: Another compound to look at: Cc1cc(N)nc(C[C@H]2CNC[C@@H]2NCCNCc2ccc(Cl)c(Cl)c2)c1 (racemic)
Outgoing: 4.20

Incoming: Input Nc1cccc(C[C@H]2CNC[C@@H]2NC[C@H](N)Cc2ccccc2)n1 (racemic)
Outgoing: 2.84

Incoming: Here is the next compound: Cc1cc(N)nc(C[C@H]2CNC[C@@H]2NCCNCc2ccc(C(F)(F)F)cc2)c1 (racemic)
Outgoing: 4.21

Incoming: Now consider Cc1cc(N)nc(C[C@H]2CNC[C@@H]2NCCN)c1 (racemic; form 1) .
Outgoing: 3.06
